Items are presented alongside their recorded recombinant barcode read abundance (log10).
- protocol.text: recombinant barcode read abundance after kanamycin selection (control-corrected) (log10(CPM+1)); higher = more efficient recombination; sequences stand for … in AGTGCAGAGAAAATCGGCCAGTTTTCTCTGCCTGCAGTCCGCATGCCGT…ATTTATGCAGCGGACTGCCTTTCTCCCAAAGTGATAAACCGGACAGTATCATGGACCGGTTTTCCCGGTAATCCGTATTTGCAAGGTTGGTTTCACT; site = the 11-nt target
endpoint: recombinant barcode read abundance (log10)

GGGCGTGGGTGGGTTCTAACCTGTTGCCTAG [GGGCGTGCTAG_LTGcore_GG_RTGcore_CT] (site GGGCGTGCTAG) (LTG core: GG, RTG core: CT); 0.188
AGGAGGTGATGGGTTCTAACCTGTTGCCTAG [AGGAGGTCTAG_LTGcore_GA_RTGcore_CT] (site AGGAGGTCTAG) (LTG core: GA, RTG core: CT); 0.417
TAAGAATTGTGGGTTCTAACCTGTTGCCTAG [TAAGAATCTAG_LTGcore_TG_RTGcore_CT] (site TAAGAATCTAG) (LTG core: TG, RTG core: CT); 0.153
GGCTCCCCTTGGGTTCTAACCTGTTGCGGTG [GGCTCCCCTCC_LTGcore_CT_RTGcore_CA] (site GGCTCCCCTCC) (LTG core: CT, RTG core: CA); 0.251
AAACATGAGTGGGTTCTAACCTGTTGCCTAG [AAACATGCTAG_LTGcore_AG_RTGcore_CT] (site AAACATGCTAG) (LTG core: AG, RTG core: CT); 0.109
